targetUnderTest: Mitogen-activated protein kinase kinase kinase 3 (Homo sapiens) (UniProt Q99759)
Sequence (Q99759 whole entry, looked up): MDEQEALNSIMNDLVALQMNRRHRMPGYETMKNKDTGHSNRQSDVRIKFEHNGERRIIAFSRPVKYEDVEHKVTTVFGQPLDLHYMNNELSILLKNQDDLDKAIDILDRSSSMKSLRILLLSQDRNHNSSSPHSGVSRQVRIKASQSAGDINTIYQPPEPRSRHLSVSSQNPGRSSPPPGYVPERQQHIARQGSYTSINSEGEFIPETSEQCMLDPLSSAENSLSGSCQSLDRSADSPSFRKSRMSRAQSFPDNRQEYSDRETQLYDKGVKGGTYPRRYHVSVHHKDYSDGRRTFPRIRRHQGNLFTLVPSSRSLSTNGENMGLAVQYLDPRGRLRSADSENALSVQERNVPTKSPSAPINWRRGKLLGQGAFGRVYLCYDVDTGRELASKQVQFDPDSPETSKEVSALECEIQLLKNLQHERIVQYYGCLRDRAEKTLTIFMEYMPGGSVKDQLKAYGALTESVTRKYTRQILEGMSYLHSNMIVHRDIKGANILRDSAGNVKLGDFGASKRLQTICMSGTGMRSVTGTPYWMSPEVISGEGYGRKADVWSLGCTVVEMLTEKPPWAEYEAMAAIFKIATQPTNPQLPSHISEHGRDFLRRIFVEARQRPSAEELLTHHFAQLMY
assayDetails: modulators of MEKK3-MEK5 PB1 binding, primary screen, biochemical, wildtype MEKK3, multiplex bead flow cytometry, Alexa488-MEK5 (AID 1529);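 note: Alexa488 bead fluorescence after subtracting the streptavidin-only scavenger bead signal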
experimentalParameters: bead-based flow cytometry, Alexa488-MEK5 binding to MEKK3; at 10 µM; actives lie on both sides; 0 = blocked by unlabeled MEK5, 100 = vehicle
The campaign covered roughly 290,000 compounds. About 4,200 (1.4%) were called active. What follows is part of a selection rich in actives, with near analogues and random picks from the rest.
Please respond with reported binding response (% of control) for every item in the list.

INPUT: Identify measured binding response (% of control) associated with COc1ccc(/C=C/C(=O)OCC(=O)Nc2cccc(Oc3ccccc3)c2)c(OC)c1
OUTPUT: 106% (inactive)

INPUT: In one line, give reported binding response (% of control) of the entry Cc1ccc(S(=O)(=O)N(C)CC(=O)OCC(=O)Nc2ccccc2)cc1 .
OUTPUT: 94% (inactive)

INPUT: // fetch binding response (% of control) given entry COc1ccc(Cl)cc1NC(=O)C(C)N1CCc2ccccc21 (stereo not given)
OUTPUT: 100% (inactive)

INPUT: Identify the reported binding response (% of control) for the following entry. CCOC(=O)CN(C)S(=O)(=O)c1ccc(-c2cc(C(=O)OC)sc2C(F)(F)F)cc1
OUTPUT: 129% (active)

INPUT: Provide binding response (% of control) value for the following molecule: COc1ccc(N(CC(=O)N2CCCCCC2)S(=O)(=O)c2ccccc2)cc1
OUTPUT: 102% (inactive)

INPUT: State, in one line, measured binding response (% of control) of COC(=O)c1sc(C(F)(F)F)c(-c2ccccc2)c1S(=O)(=O)N(C)C
OUTPUT: 106% (inactive)

INPUT: Item Cc1ccc2oc(C(=O)N3CCN(C)C[C@@H]3C(C)C)c(C)c2c1 : provide binding response (% of control)
OUTPUT: 102% (inactive)

INPUT: # return recorded binding response (% of control) for input O=C(c1ccc(CS(=O)(=O)c2ccccc2)o1)N1CCN(c2ccccc2)CC1
OUTPUT: 102% (inactive)

INPUT: Specify binding response (% of control) for CCCc1nn(C)c2c(=O)[nH]c(-c3cc(S(N)(=O)=O)ccc3OCC)nc12 and stop.
OUTPUT: 103% (inactive)

INPUT: Specify reported binding response (% of control) for the molecule shown: COc1ccccc1CNC(=O)c1ccc(N(C)S(=O)(=O)c2ccc(C)cc2)cc1
OUTPUT: 96% (inactive)

----------
targetUnderTest: Mitogen-activated protein kinase kinase kinase 3 (Homo sapiens) (UniProt Q99759)
assayDetails: modulators of MEKK3-MEK5 PB1 binding, primary screen, biochemical, wildtype MEKK3, multiplex bead flow cytometry, Alexa488-MEK5 (AID 1529);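 note: Alexa488 bead fluorescence after subtracting the streptavidin-only scavenger bead signal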
experimentalParameters: bead-based flow cytometry, Alexa488-MEK5 binding to MEKK3; at 10 µM; actives lie on both sides; 0 = blocked by unlabeled MEK5, 100 = vehicle
The whole screen tested about 290,000 compounds, of which about 4,200 (1.4%) were called active.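 How the source made its calls: active means binding response more than 3 SD above or below the average of its plate-row segment, actives on both sides; inconclusive means wells at one plate position flagged as instrument error; inactive means the rest.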 The sample as a whole holds a higher share of actives than the screen did.
Respond with a class label; see active, inactive

INPUT: // return assay outcome for c1ccc(CCc2nc(-c3ccncc3)no2)cc1
OUTPUT: inactive

INPUT: I'd appreciate the recorded outcome for COc1ccc(C(=O)OCC(=O)Nc2cccc(C(C)=O)c2)cc1OC from this test.
OUTPUT: inactive

INPUT: Tell me the recorded outcome of this test for C/C(=N\NC(=O)CNc1cccc2ccccc12)c1ccc(Br)s1 .
OUTPUT: inactive

INPUT: // return assay outcome for C/C(=N\NC(=O)CNC(=O)C(c1ccccc1)c1ccccc1)c1ccc(C)cc1
OUTPUT: active

INPUT: Hi team, can someone confirm the assay call for O=C(c1cnn(-c2ccc(Cl)cc2)c1)c1ccccc1O ?
OUTPUT: active

INPUT: Answer briefly: the call reported for COc1cc(NC(=O)CN2C(=O)NC(C)(c3ccc(OC(F)F)cc3)C2=O)cc(OC)c1OC (stereo not drawn) in this assay.
OUTPUT: inactive

INPUT: In this assay, the call recorded for O=C(COC(=O)c1ccccc1)Nc1cccc(S(=O)(=O)N2CCOCC2)c1 was what?
OUTPUT: inactive

INPUT: Hi, sorry to bother you, what did the test record for Cc1cn(COC/C=C/c2ccccc2)c(=O)[nH]c1=O ?
OUTPUT: active

INPUT: Status in this test for COc1ccc(-c2noc(COc3ccc(Cl)c(C)c3)n2)cc1 ?
OUTPUT: inactive

INPUT: Would you mind telling me which call this test gave Cc1cccc(/C=N/NC(=O)CNc2cccc3ccccc23)n1 ?
OUTPUT: active

INPUT: Recorded test call requested for Cn1cccc1/C=N/NC(=O)CNc1cccc2ccccc12
OUTPUT: inactive

INPUT: // outcome(item) with item = CCSc1nnc(SCC(=O)NNC(=O)c2ccccc2F)s1
OUTPUT: inactive

INPUT: Returns: the outcome recorded for O=C1C=CC(=O)N1c1ccc(N2CCCCC2)cc1 in this assay.
OUTPUT: active

INPUT: Name the outcome recorded for CCCCn1c(SCC(=O)NCCc2ccc(OC)c(OC)c2)nc2c1c(=O)n(C)c(=O)n2C in the assay.
OUTPUT: active

INPUT: Hi, sorry to bother you, what did the test record for CCCC(=O)N1c2ccccc2NC2=C(C(=O)CCC2)C1c1ccc(F)cc1 (stereo not drawn) ?
OUTPUT: inactive

INPUT: Check the results log: what was the call for C/C(=N\NC(=O)Cc1ccc(F)cc1)c1ccc(F)cc1 ?
OUTPUT: inactive

INPUT: Short answer needed: outcome of this test for Cc1cc(Cl)ccc1OCc1nc(-c2ccncc2)no1 ?
OUTPUT: active

INPUT: Status in this test for COCCNC(=S)Nc1cc(S(=O)(=O)N2CCOCC2)ccc1N1CCCCC1 ?
OUTPUT: inactive

INPUT: Status in this test for CCc1ccc(NC(=O)COC(=O)c2cccs2)cc1 ?
OUTPUT: inactive

INPUT: Give the logged outcome of this assay for the following compound: C#CC(C)(C)NC(=O)CSc1nc2c(c(=O)n(C)c(=O)n2C)n1CCCC
OUTPUT: inactive

INPUT: Tell me the recorded outcome of this test for CCC(=O)N1c2ccccc2NC2=C(C(=O)CCC2)C1c1ccco1 (stereo not drawn) .
OUTPUT: inactive

INPUT: Identify the outcome logged in this assay for the compound shown: COc1ccc(C(=O)Cc2cnn(-c3ccccc3)c2)c(O)c1
OUTPUT: inactive

INPUT: Tell me the assay call for COc1cc(C(C)=O)ccc1OC(=O)CN1C(=O)c2ccccc2C1=O please.
OUTPUT: inactive

----------
targetUnderTest: Mitogen-activated protein kinase kinase kinase 3 (Homo sapiens) (UniProt Q99759)
assayDetails: modulators of MEKK3-MEK5 PB1 binding, primary screen, biochemical, wildtype MEKK3, multiplex bead flow cytometry, Alexa488-MEK5 (AID 1529);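 note: Alexa488 bead fluorescence after subtracting the streptavidin-only scavenger bead signal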
experimentalParameters: bead-based flow cytometry, Alexa488-MEK5 binding to MEKK3; at 10 µM; actives lie on both sides; 0 = blocked by unlabeled MEK5, 100 = vehicle
Among all 290,000 compounds or so, about 4,200 (1.4%) were called active. The full list was thinned out, with actives kept by preference.
testReadout: binding response (% of control) (%)
Enter your answer as a number in %; do not include the unit.

INPUT: Specify binding response (% of control) for CCOC(=O)COn1c(=O)c(-c2ccc(OCC)cc2)[n+]([O-])c2ccccc21 , system Mitogen-activated protein kinase kinase kinase 3 (Homo sapiens) (UniProt Q99759).
OUTPUT: 109

INPUT: # return binding response (% of control) of CC1CCCC(C)N1C(=O)CSc1nnnn1C1CCCC1 (stereo unspecified) (system: Mitogen-activated protein kinase kinase kinase 3 (Homo sapiens) (UniProt Q99759))
OUTPUT: 101

INPUT: Enter binding response (% of control) (test system Mitogen-activated protein kinase kinase kinase 3 (Homo sapiens) (UniProt Q99759)) for COc1cccc(/C(C)=N/Nc2ncc(Cl)cc2Cl)c1
OUTPUT: 135

INPUT: Tell me binding response (% of control) of C=C(C)C1CC=C(C)/C(=N\NC(=O)CNc2ccccc2OC)C1 (stereo unspecified) when tested on Mitogen-activated protein kinase kinase kinase 3 (Homo sapiens) (UniProt Q99759).
OUTPUT: 128

INPUT: Fill in: binding response (% of control) on Mitogen-activated protein kinase kinase kinase 3 (Homo sapiens) (UniProt Q99759), entry CC(C)CCC(C)NC(=O)c1ccc2nccnc2c1 (stereo unspecified)
OUTPUT: 61

INPUT: Look up and report measured binding response (% of control) (Mitogen-activated protein kinase kinase kinase 3 (Homo sapiens) (UniProt Q99759)) for the following compound: C=C(C)C1CC=C(C)/C(=N/NC(=O)CCCNc2cccc(C)c2)C1 (stereo unspecified)
OUTPUT: 97

----------
targetUnderTest: Mitogen-activated protein kinase kinase kinase 3 (Homo sapiens) (UniProt Q99759)
assayDetails: modulators of MEKK3-MEK5 PB1 binding, primary screen, biochemical, wildtype MEKK3, multiplex bead flow cytometry, Alexa488-MEK5 (AID 1529);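 note: Alexa488 bead fluorescence after subtracting the streptavidin-only scavenger bead signal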
experimentalParameters: bead-based flow cytometry, Alexa488-MEK5 binding to MEKK3; at 10 µM; actives lie on both sides; 0 = blocked by unlabeled MEK5, 100 = vehicle
Among all 290,000 compounds or so, about 4,200 (1.4%) were called active.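 Rule for the calls: active = binding response more than 3 SD above or below the average of its plate-row segment, actives on both sides; inconclusive = wells at one plate position flagged as instrument error; inactive = the rest.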 Many of the other results were omitted from the sample, so actives are more common in it than they were.
Select the matching outcome among active, inactive

INPUT: Recorded test outcome, item C=CCC1(C(=O)N(C)Cc2ccccc2)CCN(C(=O)OC(C)(C)C)CC1
OUTPUT: inactive

INPUT: What outcome does the record of this test show for CCOC(=O)CC1(NC(=O)c2cc(COc3cncc(Cl)c3)on2)CCCCC1 ?
OUTPUT: inactive

INPUT: Returns: the outcome recorded for COc1cccc(NC(=S)NCCCN2CCOCC2)c1 in this assay.
OUTPUT: active

INPUT: Check the results log: what was the call for Cc1nnc(SCc2cccc(Cl)c2)n(N)c1=O ?
OUTPUT: inactive

INPUT: Would you mind telling me which call this test gave Cc1ccc(NC(=O)Cc2nnc(SCC(=O)Nc3nncs3)n2C)cc1 ?
OUTPUT: inactive

INPUT: Recorded test call requested for CCCN(CCC)c1nc2c(C)cccn2c(=O)c1/C=C1/SC(=S)N(Cc2ccco2)C1=O
OUTPUT: active

INPUT: What did this assay record as the result for Cc1cc(OCCOc2cccc3cccnc23)c(C)cc1Cl ?
OUTPUT: inactive

INPUT: What did this assay record as the result for O=C(Nc1ccc(O)cc1)c1ccc(NC(=O)c2ccco2)cc1 ?
OUTPUT: inactive

INPUT: Could you kindly confirm the outcome this assay logged for CCn1c(NC(=O)c2ccccc2)c(-c2cccs2)c(=O)c2ccccc21 ?
OUTPUT: active

INPUT: Please let me know the test result on file for COc1ccc(N2CCN(C(=O)c3cccs3)CC2)cc1 .
OUTPUT: inactive

INPUT: Dear colleague, could you share the recorded outcome for CCOC(=O)Cn1c(O)c(N=NC(=O)CNC(=O)Cc2ccccc2)c2ccccc21 when you have a moment?
OUTPUT: inactive

INPUT: Name the outcome recorded for CCOCCCN(C)C1CCN(C(=O)c2oc3ccccc3c2NC(=O)COc2cccc(C)c2)CC1 in the assay.
OUTPUT: inactive

INPUT: Could you check what this test reported for Cc1noc(C)c1S(=O)(=O)N(C)Cc1ccccc1 ?
OUTPUT: active

INPUT: Hi team, can someone confirm the assay call for CN(C)/C=C/c1c(C#N)c(=O)ncn1Cc1ccccc1 ?
OUTPUT: inactive

INPUT: For O=C(NCc1ccccc1)C1=C[C@@H](c2ccccc2)C[C@@H](OCCCCO)O1 , which call appears in the assay record?
OUTPUT: inactive

INPUT: Call for entry O=C(CSc1ccc(-c2ccc(F)cc2)nn1)Nc1ccc2c(c1)OCCO2 :
OUTPUT: active

INPUT: Look up the recorded call for Cc1cc(C)cc(N(CC(=O)N2CC=C(c3ccccc3)CC2)S(=O)(=O)c2c(C)noc2C)c1 in this test.
OUTPUT: inactive

INPUT: Record request — test call for CCOc1cc(NC(=S)NCc2ccco2)c(OCC)cc1NC(=O)c1ccco1
OUTPUT: inactive

INPUT: What is the recorded call for this compound in the test? Cc1cc(C)cc(NC(=S)NCCCN2CCOCC2)c1
OUTPUT: inactive

INPUT: Called result for COC(=O)c1ccc(NC(=O)c2cc3c(CO)cnc(C)c3oc2=Nc2cccc(C(N)=O)c2)cc1
OUTPUT: inactive

INPUT: Recorded test call requested for Cc1cccc(Nc2nc(NCCO)nc(N3CCCC3)n2)c1
OUTPUT: inactive

INPUT: What did the test return for COc1cc(NC(=S)NCc2ccco2)c(OC)cc1Cl ?
OUTPUT: active

# credit: PubChem BioAssay AID1529
